Listed next: entries and their corresponding apparent KD of MS2 coat protein.
- System: MS2 coat protein
- assay_explanation: apparent KD of MS2 coat protein; designed switch direction (-1 OFF switch, 1 ON switch): -1; higher = weaker reporter binding
- measurement_setup: input ligand: microRNA oligo, concentration not stated
measured_endpoint: apparent KD of MS2 coat protein (nM)

seq_string="AGCGUGGAGACAGGAUAUGAGAAUAGAUAGAACUCAGAAGGGUCACAUGAGGAUCACCCAUGUAAAGUCUUGAGGAUGAGUGGU [Prohibition 5 - Jieux - Exclusion NG 1] (Eterna round: R96, puzzle: Exclusion NG 1)" measured_endpoint="apparent KD of MS2 coat protein" reading_unit=nM test_result=29
seq_string="UUAAUACAUGUAGGAUAUGCGUGGCGAAGCUAUGCAGAAGGACAUGAGGAUCACCCAUGUUCUAGCGUCCGCGUACGGAUGCAA [JL Eng1 1.21 mod 9] (Eterna round: R96, puzzle: Exclusion NG 1)" measured_endpoint="apparent KD of MS2 coat protein" reading_unit=nM test_result=12

---

- Tested on: MS2 coat protein
- assay_explanation: apparent KD of MS2 coat protein; designed switch direction (-1 OFF switch, 1 ON switch): 1; higher = weaker reporter binding
- measurement_setup: input ligand: FMN 200 uM
measured_endpoint: apparent KD of MS2 coat protein (nM)

seq_string="UUGAAGAACAUAGGAUAUUGAAUACAUAUGUUUAACAUGAGGAUCACCCAUGUGGGUUGCGGUAUCGAGAAGGAUGAAUAAAAG [Mat - Same State NG 2 - JL mod - D15] (Eterna round: R96, puzzle: Same State NG 2)" measured_endpoint="apparent KD of MS2 coat protein" reading_unit=nM test_result=328
seq_string="GCACAUGAGGAUCACCCAUGUGCGAGAAAGACGGACCGGAUACAGGAUAUGCGCGAACGGAAGACGCAGAAGGGUGACCAAAAC [Anmaed] (Eterna round: R96, puzzle: Same State NG 3)" measured_endpoint="apparent KD of MS2 coat protein" reading_unit=nM test_result=64.1
seq_string="GCACUGGCGGUAGGAUAUCUAGGAUAUGGGAAAGACUAAGUCUGUAGGUCACCUAACCCAGAAGGAGAGAAGGACACCGAAAGG [pwkr ssNG2 2FMN + F9.20] (Eterna round: R96, puzzle: Same State NG 2)" measured_endpoint="apparent KD of MS2 coat protein" reading_unit=nM test_result=115
seq_string="AGCUAGUACGAAGGAUAUACAAACAUGAGGAUCACCCAUGUAUACAUGGUUAGAUGUGACUACAUGUAGAAGGUCGUACUAGCA [SameState NG2 #15] (Eterna round: R96, puzzle: Same State NG 2)" measured_endpoint="apparent KD of MS2 coat protein" reading_unit=nM test_result=225

---

- Tested on: K4 kissing-loop RNA reporter
- assay_explanation: apparent KD of K4 kissing-loop reporter; higher = weaker reporter binding
- measurement_setup: Eterna round: R107; input ligand: tryptophan 2.4 mM
measured_endpoint: apparent KD of K4 kissing-loop reporter (nM)

seq_string="AAAACUAUCAGAAGGAGCGUGGAAUAUUCAUCUGUAUUUAAUACGAGUGAUGUUCGUAAUUCACAGGUAGGUCGCUGAUCAAUAA [whbob_Ex_Arginine_B_2th154]" measured_endpoint="apparent KD of K4 kissing-loop reporter" test_result=254
seq_string=AAGCAGUCACUCGAAGCCAUCGAAGAUGGACGAGGACCGGUACGGCCGCCACUCGGAGUGAUGUUCCGAAGACUGCAAAAUAAAA measured_endpoint="apparent KD of K4 kissing-loop reporter" test_result=469
seq_string="AGUUUAUAGGAGGAUACCAGUACGGAUAAGGUACGUUAAUAGUAGAGUGAUGUUCUAAAGUACCCUUGGCAGCUUAGAUUGAGUU [#27 K4 Theophylline B Exclusion]" measured_endpoint="apparent KD of K4 kissing-loop reporter" test_result=101
seq_string="CGCUGGGCGAGUGAUGUUCGCUCACGUGAUACCAGUGCCAUCCAACACCCUUGGCAGCACGCGGGCAGUGAUGUUGUCCUUGUGG [Exclusion Theophylline A GF7]" measured_endpoint="apparent KD of K4 kissing-loop reporter" test_result=268
seq_string=UCCUAGGCUCGAAAGAGCCUAGGAUUAACUCAGGAUAUCCGGAAACGGAGAAGGGAGUAACUAGUGAUGUUAGGGAUUCCCUAUU measured_endpoint="apparent KD of K4 kissing-loop reporter" test_result=92.7
seq_string="UGACUGGAUUGAAGGAGCGCUAAACUCCUAGUGAUGUUAGGGAAACAAGACAAAGUCUUGAGGCAGGUAGGUCGCAAUCUAGUCU [FiskerMod 4 - Jieux - Same State - Arginine B]" measured_endpoint="apparent KD of K4 kissing-loop reporter" test_result=175

---

Catalogue of apparent KD of K4 kissing-loop reporter readings, one per entry.
- Tested on: K4 kissing-loop RNA reporter;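 also: bound reporter read as fluorescence of individual clusters on recovered sequencing chips by microscopy, with normalized cluster intensities fitted with a binding model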
- assay_explanation: apparent KD of K4 kissing-loop reporter; higher = weaker reporter binding
- measurement_setup: Eterna round: R107; input ligand: arginine 13.2 mM
measured_endpoint: apparent KD of K4 kissing-loop reporter (nM)

seq_string="CGCAGUGAUGUUGCGAGUAGCUACAGGGAAGGAGCGUGCUAGAGCACAGGUAGGUCGCCCAGUGGCAGUGAUGUUGCCAACGGGU [Exclusion ARginine A GF 18]" test_target="K4 kissing-loop RNA reporter" measured_endpoint="apparent KD of K4 kissing-loop reporter" test_result=110
seq_string="UGGACCUGACUCGAUAAGAGUCAAAGGGAUACCAGCCACGAAAGUGGCCCUUGGCAGCUCUGCCAGUGAUGUUGGUCAAGGUCCU [#SwitchBubble 6 #StaticStem]" test_target="K4 kissing-loop RNA reporter" measured_endpoint="apparent KD of K4 kissing-loop reporter" test_result=701
seq_string=GGCACUUUUGCUUGGAACCGUCAAGCUCUAUAGGAUAUGCCGAAAGGCAGAAGGAUGGACCUACAGAGUGAUGUUCUGCGUGCCU test_target="K4 kissing-loop RNA reporter" measured_endpoint="apparent KD of K4 kissing-loop reporter" test_result=140
seq_string=UCCUAGGCUCGAAAGAGCCUAGGUAAGACUCAGGAUAUCUGGAAACAGAGAAGGGAGCUACUAGUGAUGUUAGGAAUUCCCUAAG test_target="K4 kissing-loop RNA reporter" measured_endpoint="apparent KD of K4 kissing-loop reporter" test_result=97
seq_string="UGUAUGUGAUUUGAUACCAGACCAGUUGGUGGUAUAUGAGUGAUGUUUAUGUUGGUUUGGGUCCCUUGGCAGCAAAUCGCAUACU [KL-SSTheoB11]" test_target="K4 kissing-loop RNA reporter" measured_endpoint="apparent KD of K4 kissing-loop reporter" test_result=307
seq_string=UGACUGGACUGAAGGAGCGCUUAACUCCUAGUGAUGUUAGGACAACGAGACAAAGUCUCGAAGCAGGUAGGUCGCAGUCUAGUCU test_target="K4 kissing-loop RNA reporter" measured_endpoint="apparent KD of K4 kissing-loop reporter" test_result=155

---

- Test system: MS2 coat protein
- assay_explanation: apparent KD of MS2 coat protein; designed switch direction (-1 OFF switch, 1 ON switch): -1; higher = weaker reporter binding
- measurement_setup: input ligand: none
Classify by measured apparent KD of MS2 coat protein: class 1 if it is equal to or exceeds 0.03 µM, class 0 if it is smaller.

seq_string="GUAGAGUCAGGAUAUACGAGAUCGAAAGAUCGGUAGUCCUUACAUGAGGAUCACCCAUGUAGAAGGGACUCUAC [Omei mod 7 to Eli's favorate candidate (ch.parushev)] (Eterna round: R97, puzzle: Exclusion 2)" class_assignment="class 0"
seq_string="GAGACAUGAGGAUCACCCAUGUGUGGUCCAAGGCAUGUCGUCGAGGAUAUGCAGGACGUCGUCUUGCAGAAGGCGACUAAAUAC [Teatarti] (Eterna round: R96, puzzle: Exclusion NG 3)" class_assignment="class 1"
seq_string="UUGUUCCAUGUAGGAUAUGCAUAUUCUCAUUAUGCAGAAGGACAUGAGGAUCACCCAUGUAUGUUAUUAUUAUAUGUUACAUGU [Design 2] (Eterna round: R96, puzzle: Exclusion NG 1)" class_assignment="class 1"
seq_string="CGCCUGUAAGGAUAUUAGUAGUAGUCAGAAUAGACUAUUACUGAGAAGGUACAUGAGGAUCACCCAUGUUGGCG [Eli x4 4.10] (Eterna round: R97, puzzle: Exclusion 4)" class_assignment="class 0"
seq_string="ACUAGAUGAGGAUAUGCACAUUUUAGUGUUCCUCUAGAUUAACAUGAGGAUCACCCAUGUAGAAGGCGUCAUUU [Exclusion 2 - 13] (Eterna round: R96, puzzle: Exclusion 2)" class_assignment="class 1"
seq_string="CUCCGGCGUGUAGGAUAUGGUUCCGUUUAGGAUCCAGAAGGACAUGAGGAUCACCCAUGUACAUGUCGUCGGUCGUCACCGGGC [salish99_ExNG1_r04_212] (Eterna round: R96, puzzle: Exclusion NG 1)" class_assignment="class 0"
seq_string="CCCUCACUUGAGGAUCACCCAAGUCAGGAUAUCUCACCCAUCCUACGGGACGGGUCACAGAGAAGGGACUAAAA [Isdius] (Eterna round: R97, puzzle: Exclusion 1)" class_assignment="class 0"
seq_string="GUUUACAAGCUAAGAUCCUACAUGAGGAUCACCCAUGUGGUCCGGUGACGUGAGUCACCGGACUUAGCUCGUCUUGA [salish99_S_TOV1_R5_092] (Eterna round: R97, puzzle: Sensor, turn-off variant 1)" class_assignment="class 1"
seq_string="UUUAGUUCAGGAUAUGUAGAUUUAAACAUGAGGAUCACCCAUGUAGAUCCUGAUCCUGCUACAGAAGGGAACAUUU [Exclusion 5: 2:a mod1] (Eterna round: R97, puzzle: Exclusion 5)" class_assignment="class 0"

Reference for the values: the supplement of paper PMC9170038
